Reference source: patent US20180214430A1

Test system: influenza virus
Test: microbe, parasite or virus in culture
Format: cell-based, Human influenza virus A/Puerto Rico/8/34 (H1N1)
Settings: unidentified influenza virus, A549, 24 h, read-out: IC50 on influenza virus replication (concentration needed to give a 50% reduction in number of infected cells/well), A549 cells, RPMI (1.15 mM L-Arg), after 24 h; ± 95% CI
Result Type: IC50

Ask: May I ask what IC50 has been recorded for COc1ccnc(CCc2nc3ncccc3[nH]2)c1 [BYK191023] ?
Reply: 4.3 mM
